# Target of assay: WIZ protein (HiBit-WIZ fusion protein) (Homo sapiens, UniProt O95785+Q96SW2)
# Construct: expressed in transfected cells
# Sequence (O95785 whole entry, the tested form may be a part): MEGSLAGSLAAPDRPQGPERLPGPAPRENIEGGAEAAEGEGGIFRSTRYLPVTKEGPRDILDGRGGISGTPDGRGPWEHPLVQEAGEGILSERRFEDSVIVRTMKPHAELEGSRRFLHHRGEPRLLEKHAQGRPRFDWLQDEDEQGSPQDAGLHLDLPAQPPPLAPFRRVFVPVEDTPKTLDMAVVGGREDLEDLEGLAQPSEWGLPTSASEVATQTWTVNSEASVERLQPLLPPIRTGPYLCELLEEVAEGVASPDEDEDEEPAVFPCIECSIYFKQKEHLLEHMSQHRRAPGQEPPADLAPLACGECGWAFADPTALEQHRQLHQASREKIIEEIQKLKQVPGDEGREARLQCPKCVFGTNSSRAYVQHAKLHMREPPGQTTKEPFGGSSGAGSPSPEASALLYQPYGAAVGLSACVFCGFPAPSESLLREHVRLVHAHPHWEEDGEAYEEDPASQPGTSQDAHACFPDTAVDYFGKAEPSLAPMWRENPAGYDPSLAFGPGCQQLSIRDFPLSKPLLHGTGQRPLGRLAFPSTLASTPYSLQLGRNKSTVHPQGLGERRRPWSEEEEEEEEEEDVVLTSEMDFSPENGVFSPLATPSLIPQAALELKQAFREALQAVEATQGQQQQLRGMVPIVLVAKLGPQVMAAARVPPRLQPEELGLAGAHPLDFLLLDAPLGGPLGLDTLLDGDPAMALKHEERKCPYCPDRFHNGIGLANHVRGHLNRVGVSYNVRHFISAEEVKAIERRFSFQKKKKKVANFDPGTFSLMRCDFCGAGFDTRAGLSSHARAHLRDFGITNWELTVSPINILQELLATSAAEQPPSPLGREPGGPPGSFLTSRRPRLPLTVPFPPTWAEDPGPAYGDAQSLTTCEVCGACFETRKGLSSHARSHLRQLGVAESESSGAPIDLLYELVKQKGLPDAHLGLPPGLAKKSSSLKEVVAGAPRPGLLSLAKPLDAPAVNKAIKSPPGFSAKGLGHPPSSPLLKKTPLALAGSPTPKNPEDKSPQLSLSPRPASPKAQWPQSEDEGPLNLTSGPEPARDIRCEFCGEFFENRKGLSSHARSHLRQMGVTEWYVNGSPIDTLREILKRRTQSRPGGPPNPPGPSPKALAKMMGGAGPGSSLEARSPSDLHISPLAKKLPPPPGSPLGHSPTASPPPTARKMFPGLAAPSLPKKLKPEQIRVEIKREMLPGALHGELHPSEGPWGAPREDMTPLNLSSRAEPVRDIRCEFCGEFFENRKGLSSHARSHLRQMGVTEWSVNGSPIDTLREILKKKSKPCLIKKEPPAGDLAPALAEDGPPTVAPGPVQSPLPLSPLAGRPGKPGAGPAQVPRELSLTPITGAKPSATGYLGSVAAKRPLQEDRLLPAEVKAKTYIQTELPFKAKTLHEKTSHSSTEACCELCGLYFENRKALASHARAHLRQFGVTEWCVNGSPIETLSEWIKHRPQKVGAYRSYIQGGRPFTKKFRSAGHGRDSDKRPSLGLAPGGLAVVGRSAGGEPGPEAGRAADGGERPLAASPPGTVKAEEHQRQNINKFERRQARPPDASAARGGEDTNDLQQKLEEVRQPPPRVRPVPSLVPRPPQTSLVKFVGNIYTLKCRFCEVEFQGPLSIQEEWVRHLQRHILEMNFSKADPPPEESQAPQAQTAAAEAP
# Sequence (Q96SW2 whole entry, the tested form may be a part): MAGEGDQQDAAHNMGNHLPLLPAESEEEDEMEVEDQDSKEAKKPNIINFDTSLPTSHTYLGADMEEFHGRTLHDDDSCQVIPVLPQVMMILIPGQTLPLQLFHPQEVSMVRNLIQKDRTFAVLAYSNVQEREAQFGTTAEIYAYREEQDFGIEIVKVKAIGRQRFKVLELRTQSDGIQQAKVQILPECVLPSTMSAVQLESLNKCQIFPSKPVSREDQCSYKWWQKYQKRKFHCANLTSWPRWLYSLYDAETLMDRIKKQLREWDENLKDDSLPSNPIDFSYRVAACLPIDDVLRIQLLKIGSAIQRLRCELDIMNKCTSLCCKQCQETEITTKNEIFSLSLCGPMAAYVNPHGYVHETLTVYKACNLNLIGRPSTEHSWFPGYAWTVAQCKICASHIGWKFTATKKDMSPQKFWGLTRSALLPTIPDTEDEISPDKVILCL
# Sequence (Q16531 whole entry partner, the tested form may be a part): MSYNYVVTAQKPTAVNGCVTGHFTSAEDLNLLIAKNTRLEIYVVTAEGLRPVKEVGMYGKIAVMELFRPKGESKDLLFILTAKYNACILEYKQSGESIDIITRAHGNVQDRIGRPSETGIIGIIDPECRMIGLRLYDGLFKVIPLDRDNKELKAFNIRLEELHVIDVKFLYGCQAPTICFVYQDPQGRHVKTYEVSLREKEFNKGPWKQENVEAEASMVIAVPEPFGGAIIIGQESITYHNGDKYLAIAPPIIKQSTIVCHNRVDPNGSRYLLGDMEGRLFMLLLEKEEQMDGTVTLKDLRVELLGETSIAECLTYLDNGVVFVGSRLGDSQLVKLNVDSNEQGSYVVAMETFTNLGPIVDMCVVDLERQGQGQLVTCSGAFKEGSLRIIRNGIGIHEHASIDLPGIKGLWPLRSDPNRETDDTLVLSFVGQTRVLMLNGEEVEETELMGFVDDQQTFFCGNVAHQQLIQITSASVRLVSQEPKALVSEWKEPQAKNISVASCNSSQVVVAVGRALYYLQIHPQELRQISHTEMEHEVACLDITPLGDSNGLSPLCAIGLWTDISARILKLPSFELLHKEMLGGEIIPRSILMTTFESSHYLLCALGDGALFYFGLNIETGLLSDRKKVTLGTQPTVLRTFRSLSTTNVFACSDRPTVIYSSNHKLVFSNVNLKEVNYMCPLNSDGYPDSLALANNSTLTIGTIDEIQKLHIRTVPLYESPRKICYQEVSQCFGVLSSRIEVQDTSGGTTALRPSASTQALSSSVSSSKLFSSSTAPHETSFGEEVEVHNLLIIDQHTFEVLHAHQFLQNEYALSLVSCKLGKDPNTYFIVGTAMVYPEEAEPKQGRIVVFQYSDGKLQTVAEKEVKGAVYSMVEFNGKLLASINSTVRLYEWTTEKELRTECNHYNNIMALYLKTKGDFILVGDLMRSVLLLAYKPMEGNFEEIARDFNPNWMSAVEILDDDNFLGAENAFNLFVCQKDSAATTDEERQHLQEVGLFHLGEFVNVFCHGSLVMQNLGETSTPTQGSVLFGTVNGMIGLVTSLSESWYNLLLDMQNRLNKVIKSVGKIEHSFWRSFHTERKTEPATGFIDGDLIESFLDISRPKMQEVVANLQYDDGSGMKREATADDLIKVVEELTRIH
# Assay method text: Quantification of WIZ protein levels in HiBit tag fusion protein assay (WIZ HiBit assay in 293T cells)
# Assay type: cell-based
# Experimental setup: HEK-293T, DMSO-normalized, curve-fitted percentage of WIZ-HiBit remaining at 25 uM; 293T cells; read-out: WIZ Amax
Reported remaining activity at 25 µM values are given for each entry in this list.
Test readout: remaining activity at 25 µM (%)

1) O=C1CCN(c2cnn3ccc(CC4CCN(C(=O)C5CCCCC5)CC4)cc23)C(=O)N1 [Example 99] :: 48
2) O=C1CCN(c2cnn3ccc(CC4CCN(CC(F)F)CC4)cc23)C(=O)N1 [Example 43] :: 30
3) CC(C)(C1CCOCC1)N1CCC(Cc2ccn3ncc(N4CCC(=O)NC4=O)c3c2)CC1 [Example 136] :: 14
4) C[C@H]1CN(Cc2ccn3ncc(N4CCC(=O)NC4=O)c3c2)CCN1C[C@H]1C[C@@H](F)[C@@H](F)C1 [Example 318] :: 13
5) O=C1CCN(c2cnn3ccc(CN4CCN5CCOC[C@H]5C4)cc23)C(=O)N1 [Example 263] :: 45
6) CO[C@H]1C[C@H](CN2CCN(Cc3ccn4ncc(N5CCC(=O)NC5=O)c4c3)C[C@@H]2C)C1 [Example 316] :: 17
7) O=C1CCN(c2cnn3ccc(CC4CCN(CC5CCCO5)CC4)cc23)C(=O)N1 (stereo not shown) [Example 15] :: 29
8) C[C@@H]1CC(CN2CCC(Cc3ccn4ncc(N5CCC(=O)NC5=O)c4c3)CC2)C[C@H](C)O1 (stereo partly shown) [Example 113] :: 12
9) O=C1CCN(c2cnn3ccc(CC4CCN(CCC5CCOCC5)CC4)cc23)C(=O)N1 [Example 11] :: 16
10) CC1(C)CN(Cc2ccn3ncc(N4CCC(=O)NC4=O)c3c2)CCN1CC1CCCCC1 [Example 231] :: 47
11) CCS(=O)(=O)N1CCN(Cc2ccn3ncc(N4CCC(=O)NC4=O)c3c2)C[C@@H]1C [Example 339] :: 65
12) O=C1CCN(c2cnn3ccc(CN4CCN(Cc5ccccc5)CC4)cc23)C(=O)N1 [Example 165] :: 31
13) C[C@H]1CN(Cc2ccn3ncc(N4CCC(=O)NC4=O)c3c2)CCN1C1COC1 [Example 331] :: 24
14) O=C1CCN(c2cnn3ccc(CC4CCN(CC(F)(F)C5CCCCC5)CC4)cc23)C(=O)N1 [Example 112] :: 34
15) C[C@H]1CN(Cc2ccn3ncc(N4CCC(=O)NC4=O)c3c2)CCN1CC1CCCCCC1 [Example 198] :: 13
16) C[C@H]1C[C@@H](Cc2ccn3ncc(N4CCC(=O)NC4=O)c3c2)CCN1CC1CCC(F)(F)CC1 [Example 74] :: 10

###

# Target of assay: WIZ protein (HiBit-WIZ fusion protein) (Homo sapiens, UniProt O95785+Q96SW2)
# Construct: expressed in transfected cells
# Assay method text: Quantification of WIZ protein levels in HiBit tag fusion protein assay (WIZ HiBit assay in 293T cells)
# Format: cell-based
# Experimental setup: WIZ HiBit assay in 293T cells; 10-point, 5-fold dose response, highest concentration 25 μM, about 18 hours; read-out: WIZ AC50
Test readout: DC50

1. C[C@H]1C[C@H](Cc2ccn3ncc(N4CCC(=O)NC4=O)c3c2)CCN1CC1CCC(C)(C)CC1 [Example 149] :: 0.4 nM
2. O=C1CCN(c2cnn3ccc(CC4CCN(CCC5CCC5)CC4)cc23)C(=O)N1 [Example 13] :: 19 nM
3. O=C1CCN(c2cnn3ccc(CN4CCN5CCC[C@H]5C4)cc23)C(=O)N1 [Example 260] :: 796 nM
4. C[C@H]1CC(F)(Cc2ccn3ncc(N4CCC(=O)NC4=O)c3c2)CCN1C1COC1 (single isomer, unassigned) [Example 310] :: 150 nM
5. CC(C)CN1CCN(Cc2ccn3ncc(N4CCC(=O)NC4=O)c3c2)C[C@H]1C [Example 216] :: 89 nM
6. O=C1CCN(c2cnn3ccc(CN4CCN(CC5CCC5)CC4)cc23)C(=O)N1 [Example 188] :: 71 nM
7. C[C@@H]1C[C@H](Cc2ccn3ncc(N4CCC(=O)NC4=O)c3c2)CCN1CC1CCC(F)(F)CC1 [Example 78] :: 10 nM
8. C[C@H]1C[C@H](Cc2ccn3ncc(N4CCC(=O)NC4=O)c3c2)CCN1C[C@H]1CCC(F)(F)C1 [Example 307] :: 6 nM
9. C[C@H]1CC(F)(Cc2ccn3ncc(N4CCC(=O)NC4=O)c3c2)CCN1CC1CCC(F)(F)CC1 (single isomer, unassigned) [Example 308] :: 44 nM
10. C[C@H]1CN(Cc2ccn3ncc(N4CCC(=O)NC4=O)c3c2)C[C@H](C)N1CC1CCCCC1 [Example 258] :: 148 nM
11. C[C@H]1C[C@H](Cc2ccn3ncc(N4CCC(=O)NC4=O)c3c2)CCN1CCC1CCOCC1 [Example 148] :: 63 nM
12. CO[C@H]1C[C@@H](CN2CCN(Cc3ccn4ncc(N5CCC(=O)NC5=O)c4c3)C[C@@H]2C)C1 [Example 317] :: 31 nM
13. COc1ccnc(N2CCC(Cc3ccn4ncc(N5CCC(=O)NC5=O)c4c3)CC2)n1 [Example 69] :: 350 nM
14. Cc1c(CC2CCN(CC3CCCCC3)CC2)ccn2ncc(N3CCC(=O)NC3=O)c12 [Example 127] :: 13 nM
15. O=C1CCN(c2cnn3ccc(CN4CCN(C(=O)C5(C(F)(F)F)CC5)CC4)cc23)C(=O)N1 [Example 184] :: 1630 nM

The reported measurements were obtained from patent US11787785B2.
